test system: K-562 leukemia; experiment: NCI-60 one-dose screen, 48 h; conditions: 10 µM unless noted
Compounds without any hit were thinned out: in the full panel of roughly 83,000, 20% have a hit. Active and inactive are the calls of the source. How the source made its calls: active means growth percent below 10; inactive means the rest.
Outcomes: active, inactive

{"columns": ["Smiles repr", "Assayed system", "Label"],
 "data": [
  ["Clc1ccc(Nc2ncnc3c2sc2ncccc23)cc1", "K-562 leukemia", "inactive"],
  ["Cc1cc(C)c2c(n1)sc1c(Nc3ccc(O)cc3)ncnc12", "K-562 leukemia", "inactive"],
  ["Cn1nc(C(F)(F)F)cc1-c1c[nH]c(OCc2ccc(Cl)cc2)c(-c2ccc(Cl)c(C(F)(F)F)c2)c1=O", "K-562 leukemia", "active"],
  ["CCCCCCCCCCCCCCCC1=NCC[N+]1(CCO)CCO", "K-562 leukemia", "active"],
  ["O=C(/C=C/c1cn(-c2ccccc2)nc1-c1cccc(Nc2ccnc3cc(Cl)ccc23)c1)c1ccc2c(c1)OCO2", "K-562 leukemia", "inactive"],
  ["COc1c(B(O)O)cccc1-c1nc2c(F)cc3n[nH]c(C)c3c2c2c1CCCC2", "K-562 leukemia", "inactive"],
  ["CC[C@H](Nc1nc(N)nc(N)c1Cl)c1nc2cccc(NCc3ccc(C(=O)NO)cc3)c2c(=O)n1-c1ccccc1", "K-562 leukemia", "active"],
  ["COc1ccc(NC(=O)/C=C/c2ccc(Cl)c(Cl)c2)cn1", "K-562 leukemia", "inactive"],
  ["O=C(O)Cn1ccc2ccccc21", "K-562 leukemia", "inactive"],
  ["CC(=O)c1ccc(Nc2nc(Cl)nc(Oc3c(Cl)cccc3Cl)n2)cc1", "K-562 leukemia", "inactive"]
]}

---

Test system: SF-295 CNS
Assay: NCI-60 one-dose screen, 48 h
Conditions: 10 µM unless noted
Method: Cells are grown in 96 well plates and exposed to the test compound for 48 hours. Compounds are tested at a single concentration, which is 10^-5 M for most compounds. The reported endpoint is percent growth (GI% or GIPRCNT), where numbers from 0 - 100% represent growth inhibition, and numbers from -100% - 0 represent cell death. For example, a value of 40 represents 60% growth inhibition. A value of 0 means no net growth occurred over the course of the experiment. […]
Compounds without any hit were thinned out: in the full panel of roughly 83,000, 20% have a hit. Calls of active or inactive are those of the source. The calls were made as follows: active = growth percent below 10; inactive = the rest.
Outcomes: yes (1) (active), no (0) (inactive)

{"columns": ["Smiles repr", "Assayed system", "Label"],
 "data": [
  ["COc1cc2nccc(Oc3ccc(NC(=O)C4(C(=O)Nc5c(F)cc(F)cc5F)CC4)cc3)c2cc1Oc1ccc(N)cn1", "SF-295 CNS", "no (0)"],
  ["Cc1nc2c(-c3cnc(N)nc3)nc(N3CCOCC3)nc2n1C(C)C", "SF-295 CNS", "yes (1)"],
  ["NNC(=O)Cc1ccccc1", "SF-295 CNS", "no (0)"],
  ["CS(=O)(=O)Nc1cc(-c2cc3ncc(C#N)c(Nc4ccc(Oc5ccccc5)c(Cl)c4)c3s2)cnc1Cl", "SF-295 CNS", "no (0)"],
  ["SCc1ccc(CS)cc1", "SF-295 CNS", "no (0)"],
  ["O=C(Cc1ccc(Nc2ccnc(C(F)(F)F)c2)cc1)N/N=C/c1ccccc1O", "SF-295 CNS", "no (0)"]
]}
